Data provenance: ChEMBL document CHEMBL5303573

PROTOCOL_DETAILS: The drug is tested on Enterobacter cancerogenus strain: ATCC35316 for biotransformation. The drug concentrations were measured before and after a 12-h incubation by liquid-chromatography-coupled mass spectrometry (LC–MS)
RUN_PARAMETERS: 2 µM
Non-standard residues stand in square brackets, D forms with d. Residues, ends and D or L forms follow the SMILES beside them. pGlu = O=C1CC[C@@H](C(=O)O)N1; Thz = O=C(O)[C@@H]1CSCN1
READOUT_KIND: Bacterial Biotransformation

1) COc1ccc2c(c1)c(CC(=O)O)c(C)n2C(=O)c1ccc(Cl)cc1 ... Compound NOT metabolized
2) COC(=O)C(c1ccccc1)C1CCCCN1 (centres undefined) [METHYLPHENIDATE] ... Compound NOT metabolized
3) CCC1(c2ccc(N)cc2)CCC(=O)NC1=O (centres undefined) [AMINOGLUTETHIMIDE] ... Compound NOT metabolized
4) COC(=O)C1=C(C)NC(C)=C(C(=O)OC(C)C)C1c1cccc2nonc12 (centres undefined) ... Compound NOT metabolized
5) CCOC(=O)C1=C(C)NC(C)=C(C(=O)OC)C1c1cccc([N+](=O)[O-])c1 (centres undefined) ... Compound NOT metabolized
6) COc1cc2nc(N3CCN(C(=O)c4ccco4)CC3)nc(N)c2cc1OC ... Compound NOT metabolized
7) CCN(CC)CCNC(=O)c1cc(Cl)c(N)cc1OC [METOCLOPRAMIDE] ... Compound NOT metabolized
8) CN(C)CCc1c[nH]c2ccc(CS(=O)(=O)N3CCCC3)cc12 ... Compound NOT metabolized
9) c1ccc2[nH]c(-c3cscn3)nc2c1 ... Compound NOT metabolized
10) O=C1CN2Cc3c(ccc(Cl)c3Cl)N=C2N1 [ANAGRELIDE] ... Compound NOT metabolized
11) CN(C)CCc1c[nH]c2ccc(Cn3cncn3)cc12.O=C(O)c1ccccc1 [RIZATRIPTAN BENZOATE] ... Compound NOT metabolized
12) CCN(CC)C(=O)/C(C#N)=C/c1cc(O)c(O)c([N+](=O)[O-])c1 ... Compound metabolized
13) C#C[C@]1(OC(C)=O)CC[C@H]2[C@@H]3CCC4=C/C(=N/O)CC[C@@H]4[C@H]3CC[C@@]21CC [NORGESTIMATE] ... Compound NOT metabolized
14) COC(=O)Nc1nc2ccc(C(=O)c3ccccc3)cc2[nH]1 ... Compound NOT metabolized
15) CNC(=C[N+](=O)[O-])NCCSCc1csc(CN(C)C)n1 ... Compound metabolized
16) NC12CC3CC(CC(C3)C1)C2 ... Compound NOT metabolized
17) COc1cc2nc(N3CCN(C(=O)C4COc5ccccc5O4)CC3)nc(N)c2cc1OC.CS(=O)(=O)O (centres undefined) [DOXAZOSIN MESYLATE] ... Compound NOT metabolized
18) CNCCC(Oc1ccc(C(F)(F)F)cc1)c1ccccc1 (centres undefined) ... Compound metabolized
19) O=C1CC[C@@H](C(=O)N2CSC[C@H]2C(=O)O)N1 [PIDOTIMOD] ([pGlu]-[Thz]-OH) ... Compound NOT metabolized

====

PROTOCOL_DETAILS: The drug is tested on Bacteroides vulgatus strain: ATCC8482 for biotransformation. The drug concentrations were measured before and after a 12-h incubation by liquid-chromatography-coupled mass spectrometry (LC–MS)
RUN_PARAMETERS: phocaeicola vulgatus, 2 µM
READOUT_KIND: Bacterial Biotransformation

1) OCCN1CCN(CCCN2c3ccccc3Sc3ccc(C(F)(F)F)cc32)CC1 ... Compound metabolized
2) CC(=O)O[C@]1(C(C)=O)CC[C@H]2[C@@H]3C=C(Cl)C4=CC(=O)[C@@H]5C[C@@H]5[C@]4(C)[C@H]3CC[C@@]21C [CYPROTERONE ACETATE] ... Compound metabolized
3) CN(C)CCC=C1c2ccccc2C=Cc2ccccc21 ... Compound NOT metabolized
4) CCOc1ccccc1OCCN[C@H](C)Cc1ccc(OC)c(S(N)(=O)=O)c1.Cl [TAMSULOSIN HYDROCHLORIDE] ... Compound NOT metabolized
